Tested on: K. pneumoniae B 43 strain producing SHV and TEM ESBLs
Assay: Cidal activity (bacterial count over time)
Type: cell-based
Conditions: Table 5; 4 hours; initial count log 7.43 CFU/ml; concentrations in label
Below, each entry is listed with its recorded Bacterial count.
Recorded endpoint: Bacterial count (Log CFU/ml)

>>> print(df.to_string())
                                 cpd_smiles                              assay_target  recorded_endpoint  unit_descriptor  measured_number
0  CC1(C)S[C@@H]2[C@H](/N=C/N3CCCCCC3)C(=O)N2[C@H]1C(=O)O  K. pneumoniae B 43 strain producing SHV and TEM ESBLs    Bacterial count       Log CFU/ml             8.60
1    O=C(O)[C@H]1/C(=C/CO)O[C@@H]2CC(=O)N21  K. pneumoniae B 43 strain producing SHV and TEM ESBLs    Bacterial count       Log CFU/ml             8.56
2  C=CC1=C(C(=O)O)N2C(=O)[C@@H](NC(=O)/C(=N\OCC(=O)O)c3csc(N)n3)[C@H]2SC1  K. pneumoniae B 43 strain producing SHV and TEM ESBLs    Bacterial count       Log CFU/ml             8.47
3  C[C@@H](O)[C@H]1C(=O)N2C(C(=O)O)=C(SCCN=CN)C[C@H]12  K. pneumoniae B 43 strain producing SHV and TEM ESBLs    Bacterial count       Log CFU/ml             5.69

----------
Test system: K. pneumoniae ATCC 700603 strain producing SHV 18 ESBL
Assay: Cidal activity (bacterial count over time)
Type: cell-based
Conditions: Table 4; 4 hours; initial count 7.43 log CFU/ml; concentrations in label
Below, each entry is listed with its recorded Bacterial count.
Recorded endpoint: Bacterial count

>>> df
                                 cpd_smiles           result
0  CC1(C)S[C@@H]2[C@H](/N=C/N3CCCCCC3)C(=O)N2[C@H]1C(=O)O  8.33 Log CFU/ml
1    O=C(O)[C@H]1/C(=C/CO)O[C@@H]2CC(=O)N21  8.65 Log CFU/ml
2  C[C@@H](O)[C@H]1C(=O)N2C(C(=O)O)=C(SCCN=CN)C[C@H]12  3.39 Log CFU/ml
3  C=CC1=C(C(=O)O)N2C(=O)[C@@H](NC(=O)/C(=N\OCC(=O)O)c3csc(N)n3)[C@H]2SC1  8.30 Log CFU/ml

----------
System: K. pneumoniae ATCC 700603 strain producing SHV 18 ESBL
Test: Cidal activity (bacterial count over time)
Assay type: cell-based
Conditions: Table 2; 2 hours; initial count 6.65 log CFU/ml; concentrations in label
Below, each entry is listed with its recorded Bacterial count.
Recorded endpoint: Bacterial count (Log CFU/ml)

>>> df
                                   molecule  measured_number
0  CC1(C)S[C@@H]2[C@H](NC(=O)[C@H](N)c3ccc(O)cc3)C(=O)N2[C@H]1C(=O)O [Amoxicillin, amoxicillin]             7.84
1  O=C(O)[C@H]1/C(=C/CO)O[C@@H]2CC(=O)N21 [Clavulanic acid, clavulanic acid]              8.1
2  CC1(C)S[C@@H]2[C@H](/N=C/N3CCCCCC3)C(=O)N2[C@H]1C(=O)O [Mecillinam, mecillinam]             7.47
3  C[C@@H](O)[C@H]1C(=O)N2C(C(=O)O)=C(SCCN=CN)C[C@H]12 [Imipenem, imipenem]             5.32
